biological target: Cytochrome P450 3A4 (Homo sapiens) (UniProt P08684); assay: Cytochrome panel assay with activity outcomes; conditions: recombinant CYP, pro-luciferin dealkylation, luminescence, p450-cyp3a4; series mostly up to 57.1 µM; note: % is set by controls: 0 for no effect and ±100 for the full control effect
Sequence (P08684 whole entry, looked up): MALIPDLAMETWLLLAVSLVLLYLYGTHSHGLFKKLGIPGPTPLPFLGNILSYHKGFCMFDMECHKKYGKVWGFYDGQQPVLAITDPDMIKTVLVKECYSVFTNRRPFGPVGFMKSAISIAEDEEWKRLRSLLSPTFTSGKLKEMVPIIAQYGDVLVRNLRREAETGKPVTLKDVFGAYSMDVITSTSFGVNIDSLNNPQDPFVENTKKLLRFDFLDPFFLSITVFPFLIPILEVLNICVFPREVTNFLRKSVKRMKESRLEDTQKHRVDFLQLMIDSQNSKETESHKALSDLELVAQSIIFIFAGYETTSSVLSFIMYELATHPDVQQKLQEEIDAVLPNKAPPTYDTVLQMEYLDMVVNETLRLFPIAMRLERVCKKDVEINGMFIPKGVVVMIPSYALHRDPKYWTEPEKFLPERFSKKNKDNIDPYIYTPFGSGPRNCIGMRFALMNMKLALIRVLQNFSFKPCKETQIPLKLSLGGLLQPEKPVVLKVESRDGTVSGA
About 5,100 (32%) of roughly 16,000 compounds were called active. Roughly 25% stayed inconclusive and do not appear here. Some of the results follow.
Assign activity, negative = inhibition to each entry below.

Recorded activity, negative = inhibition for `C[C@@H](C[C@H](N)C(=O)O)C(=O)O` , please?
-6.03% [at 11.4 µM] (inactive)

Okay, and `COC(=O)c1ccc(Cl)c(NC(=O)c2ccc(-c3ccccc3)cc2)c1` ?
0.213% [at 2.29 µM] (inactive)

And for `Nc1ccc(S(=O)(=O)NCCS(=O)(=O)O)cc1` ?
-0.993% [at 11.4 µM] (inactive)

Ok, now `NS(=O)(=O)c1ccc(NC(=O)Nc2cccc3ccccc23)cc1`
-6.44% [at 11.4 µM] (inactive)

Queued: `O=C(N/N=C/c1cccc([N+](=O)[O-])c1)c1cc2c(ccc3ccccc32)o1`
-7.91% [at 2.29 µM] (inactive)

Could you do the same for `COc1cc(/C=C/C(=O)O)cc(S(=O)(=O)NCCCO)c1OC` , please?
-24.1% [at 11.4 µM] (inactive)

And `Cc1cccc(NC(=O)CSc2nc(-c3ccccc3)c(C#N)c(=O)[nH]2)c1C` ?
4.48% [at 0.457 µM] (inactive)

Moving on to `CC(=O)OC[C@@H]1O[C@H](C/C=N\OC[C@@H](O)COCc2ccco2)C=C[C@@H]1OC(C)=O`
-26.2% [at 11.4 µM] (inactive)

Same question, `C[N+](C)(N)Cc1csc(-c2ccc(Cl)cc2)n1` this time
-0.841% [at 11.4 µM] (inactive)

Check `O=C(O)c1ccc(Cc2ccccc2C(=O)O)cc1` too.
-8.32% [at 11.4 µM] (inactive)

Entry to check: `O=C(CC(=O)NN=C1CCCC1)NCCc1ccccc1`
4.31% [at 2.29 µM] (inactive)

Lookup `CC(C)NC(=O)N1CCN(c2ccncc2S(=O)(=O)N2CCOCC2)CC1`
-21.8% [at 2.29 µM] (inactive)

Now consider Cc1ccc(C(OC(=O)c2ccco2)C(=O)NC2CCCCC2)cc1 (stereo not given) and answer again.
-11.1% [at 2.29 µM] (inactive)

Subsequent entry: `O=C(N/N=C/c1ccc(O)cc1)c1csc2ccccc12`
-23.9% [at 11.4 µM] (inactive)

Next compound: `CCCn1nc2cc(C(=O)NCc3ccccc3OC)ccc2c1OCC`
-3.81% [at 2.29 µM] (inactive)

// next record `O=CN1CCN(C[C@H](O)CN2CCCCC2)CC1`
-4.95% [at 11.4 µM] (inactive)

How about this compound: `C/C(CC/C(C)=N/O)=N/O`
-10.6% [at 11.4 µM] (inactive)

Repeat with `Clc1ccc2c(c1)N(CCCN1CCCC13CCCCC3)c1ccccc1S2`
-16.3% [at 11.4 µM] (inactive)

Also, `C=CC[C@@H]1C=C[C@H](ON=C(C)C)[C@H](CO)O1` please.
-13.4% [at 11.4 µM] (inactive)

Consider next the compound `O=S(=O)(NCc1cccnc1)c1ccc(Cl)nc1` in the same way.
5.89% [at 2.29 µM] (inactive)

Record: `O=C(N/N=C\c1cccc(O)c1)c1ccncc1`
-5.33% [at 11.4 µM] (inactive)

Record: `C#CCSc1n[nH]c(-c2ccco2)n1`
-10.2% [at 11.4 µM] (inactive)

Query `Nc1nc(=O)c2[nH]cnc2n1O` next
-2.96% [at 11.4 µM] (inactive)

Let us now turn to `COc1ccc(-n2c(C)cc(C=O)c2C)cc1Cl`
6.7% [at 2.29 µM] (inactive)

Would you mind doing `Cn1c([N+](=O)[O-])cnc1CN1CCN(CCO)CC1` as well?
-14.7% [at 11.4 µM] (inactive)

These data points were gathered from PubChem BioAssay AID1851.
